Test system: Mycobacterium tuberculosis
Test: Antimycobacterial activity against Mycobacterium tuberculosis My 331/88 after 14 days by micromethod
Format: functional
Details: My 331/88, 336 h
Parameter: MIC

1. COc1cc(Cl)ccc1C(=S)Nc1ccc(Br)cc1    4 µM
2. COc1cc(Cl)ccc1C(=O)Nc1ccc(C(F)(F)F)cc1    125 µM
3. COc1ccc(Cl)cc1C(=S)Nc1cccc(C(F)(F)F)c1    16 µM
4. COc1ccc(Cl)cc1C(=O)Nc1cccc(C(F)(F)F)c1    4 µM
5. COc1cc(Cl)ccc1C(=S)Nc1cccc([N+](=O)[O-])c1    8 µM
6. O=C(Nc1cccc(Cl)c1)c1cc(Cl)ccc1O    4 µM
7. COc1ccc(Cl)cc1C(=O)Nc1cccc(Cl)c1    250 µM
8. COc1cc(Cl)ccc1C(=O)Nc1ccc([N+](=O)[O-])cc1    250 µM
9. COc1cc(Cl)ccc1C(=S)Nc1cccc(Br)c1    32 µM
10. COc1cc(Cl)ccc1C(=S)Nc1cccc(C(F)(F)F)c1    4 µM
11. COc1ccc(Cl)cc1C(=O)Nc1ccc(C(F)(F)F)cc1    250 µM
12. COc1ccc(Cl)cc1C(=O)Nc1ccc(Cl)cc1    62.5 µM
13. COc1cc(Cl)ccc1C(=O)Nc1ccc(Cl)cc1    125 µM
14. O=C(Nc1cccc([N+](=O)[O-])c1)c1ccc(Cl)cc1O    8 µM
15. COc1cc(Cl)ccc1C(=O)Nc1cccc(C(F)(F)F)c1    250 µM
16. O=C(Nc1ccc(Cl)c(Cl)c1)c1ccc(Cl)cc1O    4 µM
17. O=C(Nc1ccc(Br)cc1)c1ccc(Cl)cc1O    4 µM
18. O=C(Nc1ccc(C(F)(F)F)cc1)c1cc(Cl)ccc1O    2 µM
19. COc1ccc(Cl)cc1C(=O)Nc1ccc(Cl)c(Cl)c1    125 µM
20. COc1ccc(Cl)cc1C(=O)Nc1cccc([N+](=O)[O-])c1    125 µM
21. NNC(=O)c1ccncc1    0.5 µM
22. COc1cc(Cl)ccc1C(=O)Nc1ccc(Cl)c(Cl)c1    125 µM
23. O=C(Nc1ccc([N+](=O)[O-])cc1)c1cc(Cl)ccc1O    4 µM
24. COc1ccc(Cl)cc1C(=S)Nc1ccc(C(F)(F)F)cc1    16 µM
25. COc1ccc(Cl)cc1C(=O)Nc1cccc(Br)c1    125 µM

----------
Parameter: inhibition. Scope: all listed entries.
Molecular target: Isocitrate lyase (Mycobacterium tuberculosis) (UniProt P9WKK7)
Sequence (P9WKK7 whole entry): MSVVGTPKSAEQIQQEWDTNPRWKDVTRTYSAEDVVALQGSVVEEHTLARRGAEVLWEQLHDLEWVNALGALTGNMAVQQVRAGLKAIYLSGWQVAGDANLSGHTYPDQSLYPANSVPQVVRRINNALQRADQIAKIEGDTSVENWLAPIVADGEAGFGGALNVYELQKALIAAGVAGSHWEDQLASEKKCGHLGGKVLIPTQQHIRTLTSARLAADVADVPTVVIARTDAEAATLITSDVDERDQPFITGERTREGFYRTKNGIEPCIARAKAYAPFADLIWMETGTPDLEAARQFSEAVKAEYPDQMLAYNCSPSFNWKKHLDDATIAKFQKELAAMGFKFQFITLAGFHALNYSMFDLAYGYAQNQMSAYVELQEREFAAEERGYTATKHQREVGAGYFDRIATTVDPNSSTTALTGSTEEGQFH
Assay: Inhibition of Mycobacterium tuberculosis H37Rv isocitrate lyase expressed in Escherichia coli BL21(DE3) using (+)-potassium Ds-threo-isocitrate as substrate assessed as glyoxylate phenyl hydrazone formation at 100 umol/L by spectrophotometry
Parameter: inhibition (%)

1. COc1cc(Cl)ccc1C(=S)Nc1cccc(Cl)c1    20
2. COc1cc(Cl)ccc1C(=S)Nc1ccc(Br)cc1    27
3. COc1cc(Cl)ccc1C(=S)Nc1ccc(Cl)cc1    39
4. COc1cc(Cl)ccc1C(=S)Nc1ccc(Cl)c(Cl)c1    17
5. COc1cc(Cl)ccc1C(=S)Nc1cccc(C(F)(F)F)c1    23

----------
Assay: Selectivity ratio of IC50 for human HepG2 cells to MIC for Mycobacterium tuberculosis My 331/88 after 14 days
Type: functional
Could you label it fulfilled if measured Selectivity ratio is 0.7 or higher, and not fulfilled otherwise?

1) COc1cc(Cl)ccc1C(=S)Nc1ccc(Cl)cc1    fulfilled
2) COc1cc(Cl)ccc1C(=S)Nc1ccc(Cl)c(Cl)c1    fulfilled
3) COc1cc(Cl)ccc1C(=S)Nc1cccc(C(F)(F)F)c1    not fulfilled
4) COc1cc(Cl)ccc1C(=S)Nc1ccc(Br)cc1    fulfilled
5) COc1cc(Cl)ccc1C(=S)Nc1cccc(Cl)c1    fulfilled

----------
Tested on: Mycobacterium tuberculosis
Test: Antimycobacterial activity against Mycobacterium tuberculosis My 331/88 after 14 days by micromethod
Format: functional
Settings: My 331/88, 336 h
Parameter: log10 of MIC. Scope: all listed entries.
Parameter: log10 of MIC (log10 of the value in µM)

1) COc1ccc(Cl)cc1C(=S)Nc1cccc([N+](=O)[O-])c1    2.40
2) COc1ccc(Cl)cc1C(=O)Nc1ccc([N+](=O)[O-])cc1    2.10
3) COc1ccc(Cl)cc1C(=S)Nc1ccc([N+](=O)[O-])cc1    1.51
4) COc1ccc(Cl)cc1C(=O)Nc1ccc(Br)cc1    1.20
5) COc1ccc(Cl)cc1C(=S)Nc1cccc(Br)c1    1.51
6) COc1cc(Cl)ccc1C(=O)Nc1cccc([N+](=O)[O-])c1    2.10
7) COc1cc(Cl)ccc1C(=O)Nc1cccc(Br)c1    2.40
8) O=C(Nc1cccc(Cl)c1)c1ccc(Cl)cc1O    0.60
9) COc1cc(Cl)ccc1C(=O)Nc1cccc(Cl)c1    2.10
10) COc1ccc(Cl)cc1C(=S)Nc1cccc(Cl)c1    1.20

meta.source: ChEMBL document CHEMBL2086318
